Biological target: CLDN23
Assay: pooled miR-30 sensor sort-seq; sequence = guide strand
Conditions: shRNA
sensor-assay potency score (higher = more potent) overview
Respond with the number and no other words.

Please report the recorded sensor-assay potency score (higher = more potent) for "TACAACTCCACGTCCACTGGCT" .
0.00465

Please report the recorded sensor-assay potency score (higher = more potent) for "TTGGGCTCGTCCTGCCAGCAGC" .
-1.78

Please report the recorded sensor-assay potency score (higher = more potent) for "TTGAGCAGGAGCCCGCAGGGCG" .
-1.37

Please report the recorded sensor-assay potency score (higher = more potent) for "TCGCTGTAGTACTTGATGGCGG" .
-1.12

====

sensor-assay potency score (higher = more potent) overview
Target: GPR64
Assay: pooled miR-30 sensor sort-seq; sequence = guide strand
Conditions: shRNA
Respond with the number and no other words.

Worked cases, sensor-assay potency score (higher = more potent) given:
SEQUENCE STRING | VALUE OBSERVED
TAGTCTACTCTCCTGTTCCTAA | -0.669
TAAGCTTAAAGTAACATCTGGA | 0.962

Please report the recorded sensor-assay potency score (higher = more potent) for "TAGTGTATTGTTTAAAACCAAC" .
-1.45

Please report the recorded sensor-assay potency score (higher = more potent) for "TTCTATAATCTGACTACTGGGG" .
-0.476

====

Molecular target: SULT1A2
Assay: pooled miR-30 sensor sort-seq; sequence = guide strand
Settings: shRNA
sensor-assay potency score (higher = more potent) overview

Please report the recorded sensor-assay potency score (higher = more potent) for "TGGGACTTTGAACTCAAGGAAG" .
-1.59

Please report the recorded sensor-assay potency score (higher = more potent) for "TGGTCCATGAACTCCCGGCGGA" .
-1.53

Please report the recorded sensor-assay potency score (higher = more potent) for "TTATTCTGGAGCCTCTTGGTCA" .
-0.61

====

Molecular target: DMKN
Experiment: pooled miR-30 sensor sort-seq; sequence = guide strand
Settings: shRNA
QUANTITY: sensor-assay potency score (higher = more potent)
Respond with the number and no other words.

SEQUENCE STRING | VALUE OBSERVED
TTGTAGTTCTGATCGGCTCTGC | 0.13
TCGAATGACATCTTCTGCCTGT | 0.442
TGACTGAGTACTTCCCACCATA | -1.25
TTTGCAGGGGTCTTGACTGAGT | -1.13

Please report the recorded sensor-assay potency score (higher = more potent) for "TGTAATTGTAGTTCTGATCGGC" .
0.784

Please report the recorded sensor-assay potency score (higher = more potent) for "TAGTTCTGATCGGCTCTGCCTG" .
-0.576

Please report the recorded sensor-assay potency score (higher = more potent) for "TTCTGTTTGAAATCCTCCCAGA" .
-0.45

Please report the recorded sensor-assay potency score (higher = more potent) for "TTGTTGTCACCATTGCTGCCAC" .
-0.584

====

Molecular target: CYLC1
Test: pooled miR-30 sensor sort-seq; sequence = guide strand
Details: shRNA
sensor-assay potency score (higher = more potent) overview
Respond with the number and no other words.

SEQUENCE STRING | VALUE OBSERVED
TTTAGTTTTCTCTTCTACTATT | -1.07
TTCATCTTTCTGACTCTCCTTT | 0.625
TATTATCTGTCTTTGAATCTTT | 0.0737
TTCTCTTCTACTATTTGCTTGG | -0.0318
TTGTTGCATATGAACCTCCTTT | -0.831

Please report the recorded sensor-assay potency score (higher = more potent) for "TTGATTTATCATTTGTACCTCT" .
0.236

Please report the recorded sensor-assay potency score (higher = more potent) for "TTGCATCCTTTGCATCTCCTGA" .
-0.744

Please report the recorded sensor-assay potency score (higher = more potent) for "TATGGGATCATTACTAGTCTTT" .
-0.233

Please report the recorded sensor-assay potency score (higher = more potent) for "TTGTCATGTCTAGTAACTGTTA" .
-0.717

Just for reference, the OligoGym collection is where these values come from.
